Test system: SF-268 CNS
Assay: NCI tumour cell line growth inhibition, 48 h
Reported GI50 values for the following molecules.

molecule: O=c1cc/c(=N\Nc2ccccc2)c(=O)/c1=N/Nc1ccccc1
assaySystem: SF-268 CNS
GI50: > 50 µM

molecule: COc1nccc(-c2c(-c3ccc(F)cc3)ncn2C2CCC(O)CC2)n1 (centres undefined)
assaySystem: SF-268 CNS
GI50: > 84.6 µM

molecule: C#Cc1cccc(NC(=O)Nc2ccc(NC(=O)CCl)cc2)c1
assaySystem: SF-268 CNS
GI50: 12.7 µM

molecule: CCN(CC)CCC(=O)Nc1cccc2c1C(=O)c1c(c(O)c3ccccc3c1O)C2=O
assaySystem: SF-268 CNS
GI50: 12.7 µM

---

Tested on: DU-145 prostate
Assay: NCI tumour cell line growth inhibition, 48 h
Each entry below carries its reported TGI.

compound: CCC(=O)N(c1ccccc1)C(C)CN1CCC(O)(c2ccccc2)CC1 (stereo not given)
TGI: > 100 µM
//
compound: COc1ccc(NC(=O)C2=C(SC)C(C#N)C(=O)N=C2N)cc1 (stereo not given)
TGI: > 100 µM
//
compound: CN1CC=C(OP(=O)(NCc2ccccc2)N(CCCl)CCCl)CC1 (stereo not given)
TGI: > 100 µM
//
compound: Cc1ccc(NC(=O)c2ccnc(C(F)(F)F)c2)cc1-c1cc(OCCO)nc(N2CCOCC2)c1
TGI: 61.2 µM
//
compound: O=c1c2cc(Br)ccc2oc2ccc(Br)cc12
TGI: > 100 µM
//
compound: CCn1c(=O)c2c(=O)[nH][nH]c2c2ccccc21
TGI: > 100 µM
//
compound: COc1c(O)cc(/C=C/c2cc(O)cc3c2[C@@]2(C(=O)O3)c3c(O)cc(O)cc3OC2c2cccc(O)c2)cc1O (stereo not given in full)
TGI: > 100 µM
//
compound: CC1C(=O)N=C2C(=CN(Cc3ccccc3)c3ccccc32)C(=O)N1C (stereo not given)
TGI: > 100 µM
//
compound: COc1ccc(NS(=O)CCc2ccccc2)cc1 (stereo not given)
TGI: > 100 µM
//
compound: CCN(CC)c1ccc(/C=C/C2=NN(c3cccc(S(=O)(=O)O)c3)C3(C2)C(Cl)C(=O)N3c2nc3ccccc3s2)cc1 (stereo not given)
TGI: 25.2 µM
//
compound: COc1cc(C2c3cccc4cccc(c34)C3CCC(=O)N32)cc(O)c1O (stereo not given)
TGI: > 50 µM
//
compound: CN(C(=O)C1=CCCCCC1)c1ccccc1I
TGI: > 100 µM
//
compound: Cc1c(CCN=P(c2ccccc2)(c2ccccc2)c2ccccc2)c(=O)n2c([nH]c3ccccc32)c1C#N
TGI: > 10 µM
//
compound: OCCN(CO)CN(CN(CO)CCO)c1nc(N(CN(CO)CCO)CN(CO)CCO)nc(N(CN(CO)CCO)CN(CO)CCO)n1
TGI: 0.0783 µg/mL
//
compound: Clc1nc(Cl)c2ncn(C/C=C\Cn3cnc4c(Cl)nc(Cl)nc43)c2n1
TGI: 2.89 µM
//
compound: O=C1/C(=C/c2cccc([N+](=O)[O-])c2)CCCc2ccccc21
TGI: 28.2 µM
//
compound: CC(=O)NNC=N/C(C#N)=C(\N)C#N
TGI: > 100 µM
//
compound: CC(=O)c1c2c(cc3c1CC1(Cc4cc5c(cc4C1)CCC5)C3)CCC2
TGI: > 100 µM
//
compound: Cc1cccc(C(C)O)n1 (stereo not given)
TGI: > 100 µM
//
compound: CC1CCC2(OC1)OC1CC3C4CC=C5CC(OC6OC(CO)C(OC7OC(C)C(OC8OC(C)C(O)C(O)C8O)C(O)C7O)C(O)C6OC6OC(C)C(O)C(O)C6O)CCC5(C)C4CCC3(C)C1C2C (stereo not given)
TGI: 2.54 µM

---

Parameter TGI: see the listing below.
Test system: SK-MEL-5 melanoma
Test: NCI tumour cell line growth inhibition, 48 h
propertyMeasured: TGI

compound: NN/C(=N\S(=O)(=O)c1cc(Cl)c(Oc2ccc([N+](=O)[O-])cc2Cl)c(Cl)c1)Nc1ccc(Cl)cc1
valueReported: 29.4 µM

compound: O=c1c2cc(Br)ccc2oc2ccc(Br)cc12
valueReported: > 100 µM

compound: CCCCCCCCCC(=O)OCC1(CO)C/C(=C/CC(C(C)C)C(C)C)C(=O)O1 (stereo unspecified)
valueReported: > 100 µM

compound: C/C(C=O)=N\Nc1cc(C)c2ccccc2n1
valueReported: 29.9 µM

compound: NC(=S)N/N=C/c1cc(CN2CCOCC2)c(N)cn1
valueReported: > 100 µM

compound: C1CSCC2(COC2)CS1
valueReported: > 100 µM

---

Test system: MCF7 breast
Assay: NCI tumour cell line growth inhibition, 48 h; in the data active means GI50 below about 0.43 µM; inactive means the rest
Possible outcomes: active, inactive

compound: COc1ccc2c(c1)[nH]c(=O)c1c3cccnc3cn21
label: active
//
compound: COc1n[n+]([O-])c(C)cc1[N+](=O)[O-]
label: inactive
//
compound: COc1cc(/C=C2\CCCC3=C2NC(N)=NC3c2cc(OC)c(OC)c(OC)c2)cc(OC)c1OC (stereo unspecified)
label: inactive
//
compound: Nc1nc(-n2cccn2)nc(-n2cccn2)c1Br
label: inactive
//
compound: CC[C@@]1(O)C(=O)NCc2c1cc1n(c2=O)Cc2cc3cc4c(cc3nc2-1)OCO4
label: active
//
compound: CCCCCC(=O)N1c2ccccc2NC2=C(C(=O)CC(c3ccc(OC)c(OC)c3)C2)C1c1ccc(C(F)(F)F)cc1 (stereo unspecified)
label: inactive

---

Catalogue of molecules with associated TGI
Tested on: A549 NSCLC
Test: NCI tumour cell line growth inhibition, 48 h

molecule: CCOc1ccc(NCC(=O)N2CC(=O)Nc3ccccc32)cc1
TGI: > 100 µM

molecule: N#CCCc1nc2ccc(Br)cc2c(=O)n1-c1ccc(O)c([N+](=O)[O-])c1
TGI: > 100 µM

molecule: O=C(Cc1ccccc1)N/N=C(/CCN1CCCC1)CC(c1ccccc1)c1c(O)c2ccccc2oc1=O (stereo not given)
TGI: > 100 µM

molecule: C[C@]12CC[C@H]3[C@@H](CC=C4C[C@@H](O)CC[C@@]43C)[C@@H]1C/C(=C\c1cccc(OCCN3CCOCC3)c1)[C@@H]2O
TGI: > 100 µM

molecule: O=S(=O)(O)C(F)(F)C(F)(F)C(F)(F)C(F)(F)F
TGI: > 100 µM

molecule: Cc1[nH]c2ncn(/N=C/c3ccccc3)c(=N)c2c1Cc1ccccc1
TGI: > 100 µM

molecule: CSc1nc(=S)[nH]c2n[nH]c(C)c12
TGI: > 100 µM

molecule: O=C(Oc1ccccc1)c1cc(O)c(O)c(O)c1
TGI: > 100 µM

molecule: CC(C#N)Nc1ccc(Oc2ccc(C(C)(C)c3ccc(Oc4ccc(NC(C)C#N)cc4)cc3)cc2)cc1 (stereo not given)
TGI: > 100 µM

molecule: C[N+](C)(C)CC1Cc2ccccc2C1=O (stereo not given)
TGI: > 10 µM

molecule: COc1cc(C)cc2c1OC(c1ccccc1)CC2=O (stereo not given)
TGI: > 100 µM

molecule: COc1ccc(CSCc2cc(OC)c(OC)c(OC)c2)cc1
TGI: > 100 µM

molecule: Clc1ccc(C2=Nc3ccccc3SC(c3ccc(Cl)c(Cl)c3)C2)c(Cl)c1 (stereo not given)
TGI: 43.6 µM

molecule: CCN(CC)CCCCC1CCN(CC(=O)N2c3ccccc3NC(=O)c3ccccc32)CC1
TGI: > 100 µM

molecule: CC(C)=CC(=O)Cc1nc2ccccc2[nH]c1=O
TGI: > 100 µM

---

Test system: MDA-MB-231 breast
Assay: NCI tumour cell line growth inhibition, 48 h; in the data active means GI50 below about 0.43 µM; inactive means the rest
Possible outcomes: y for active, n for inactive

compound: CN(C)c1cccc2[nH]c(-c3[nH]ncc3Nc3ccnc(N)n3)nc12
label: y

compound: O=[N+]([O-])c1cccc(-c2nc3sccn3c2-c2ccnc(NCCCNS(=O)(=O)c3ccc(F)cc3)n2)c1
label: n

compound: COc1cc(/C=C2\CCCC3=C2NC(N)=NC3c2cc(OC)c(OC)c(OC)c2)cc(OC)c1OC (stereo not drawn)
label: n

compound: CC(C)(C)Cn1c(N)nc2ccc(-c3[nH]c(C(C)(C)C)nc3-c3ccc(F)cc3)nc21
label: n

compound: O=C(CNC(=O)c1cccc2ccccc12)Nc1ccccc1Oc1cccc(O)c1
label: n

compound: O=C1N=C2c3c(sc4c3CCCC4)N=CN2C1N=Nc1ccc(Cl)cc1 (stereo not drawn)
label: n

compound: N#Cc1c(NC(=O)c2cccs2)[n+]([O-])c2ccccc2[n+]1[O-]
label: n

compound: c1ccc(-c2nc(Nc3ccc(-c4nc5ccccc5[nH]4)cc3)nc(N3CCOCC3)n2)cc1
label: n

compound: COc1cc2c(/C=C3/C(=O)Nc4ccccc43)c(Cl)n(Cc3ccccc3)c2cc1C
label: n

compound: C#Cc1cccc(NC(=O)Nc2ccc(NC(=O)CCl)cc2)c1
label: n

compound: S=C(Nc1ccccc1)c1ccccn1
label: n

compound: CC(=O)OCC(=O)[C@@]1(O)[C@H](C)C[C@H]2[C@@H]3C=C(C)C4=Cc5c(cnn5-c5ccc(F)cc5)C[C@]4(C)[C@H]3[C@@H](O)C[C@@]21C
label: n

compound: N#Cc1nc(-c2cccc(Br)c2)cc(-c2ccc(Nc3nc(N4CCCCC4)nc(N4CCCCC4)n3)cc2)c1N
label: n

compound: COC(=O)Nc1ccc2ccc3c(NC(=O)OC)ccc4ccc1c2c43 (tested in a mixture with another compound)
label: n

compound: COc1ccc(/C=C/C(=O)c2ccc(Nc3ncnc4ccccc34)cc2)cc1OC
label: n

compound: CNC(=O)c1cc(Oc2ccc3nc(NC(=O)Nc4ccc(Cl)c(Cl)c4)sc3c2)ccn1
label: n

compound: CCN(CC)c1ccc(/C=N/NC(=O)c2ccc(Nc3ccnc(C(F)(F)F)c3)cc2)c(O)c1
label: y

compound: COc1cc2c(cc1OCCCCCOc1cc(-c3ccc(F)cc3)nc(C)n1)N=C[C@@H]1CCCN1C2=O
label: n

Where do the numbers come from? From PubChem BioAssay (NCI).
